Data origin: patent EP4714976A1

- Target Of Assay: T1, extracellular domain of FGFR2c protein (Example 1) (UniProt P21802 22-377)
- T1 construct: extracellular domain
- T1 sequence (P21802 22-377): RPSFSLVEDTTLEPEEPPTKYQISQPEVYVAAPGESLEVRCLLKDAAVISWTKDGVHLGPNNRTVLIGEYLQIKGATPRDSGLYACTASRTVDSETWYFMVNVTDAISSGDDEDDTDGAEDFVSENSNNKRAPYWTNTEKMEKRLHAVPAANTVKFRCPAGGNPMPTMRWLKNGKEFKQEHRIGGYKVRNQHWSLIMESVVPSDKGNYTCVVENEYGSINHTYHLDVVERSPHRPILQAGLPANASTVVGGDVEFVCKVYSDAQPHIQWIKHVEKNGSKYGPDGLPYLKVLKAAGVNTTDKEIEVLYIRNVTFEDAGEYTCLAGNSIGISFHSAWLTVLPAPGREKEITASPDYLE
- Measurement Notes: phage ELISA
Quantity Name: OD (450 nm) value
No unit in the answer, please; the number alone is enough.

{"Binder": "1B8 scFv displayed on phage (scFv) scFv: QIQLQQSGAELVKPGASVKMSCKASGYTFASYNLHWVKQTPGQGLEWIGLIYPENGDTSYNQKFKGKATLTADTSSTTAYIQLSSLTSEDSAVYFCARGGFDYWGQGTSLTVSSGGGGSGGGGSGGGGSDIKMTQSPASLSASVGETVTITCGASENIYGALNWYQRKQGKSPQLLIYGATNLADGMSSRFSGSGSGRQYSLKISSLHPDDVATYYCQNVLSTPYTFGGGTKLEIK", "OD (450 nm) value": 0.082}
{"Binder": "2B2 scFv displayed on phage (scFv) scFv: QLQLQQSGAELVKPGASVKMSCKASGYTFASYNLHWVKQTPGQGLEWIGLIYPENGDTSYNQKFKDKATLTADKSSTTAYIQLSSLASEDSAVYFCARGGFDYWGQGTTLTVSSGGGGSGGGGSGGGGSDIVMTQSQKFMSTSVGDRVSVTCKASQNVGTNVAWYQQKPGQSPKALIYSASYRYSGVPDRFTGSGSGTDYTLTISSVQAEDLALYYCQQHYSTPYTFGGGTKLELK", "OD (450 nm) value": 0.051}
{"Binder": "3B4 scFv displayed on phage (scFv) scFv: EVQLQQSGADLVKPGASVKMSCKASGYTFSYYNMHWVRRTPGQGLEWIGLIYPDNGDTSYNQKFKGKATLTADTSSSTAYMQLSSLTSEDSAVYYCARGGLDYWGQGTTLTVSSGGGGSGGGGSGGGGSDIQMIQSPASMSASVGETVTITCGASENIYGALNWYQRKQGKSPQLLIYGATNLADGMSSRFSGSGSGRQYSLKISSLHPDDVATYYCQNVLSTPYTFGGGTKLEMK", "OD (450 nm) value": 0.042}

Qu. Give the reported value of OD (450 nm) value for this record: 3A8 scFv displayed on phage (scFv) scFv: QVQLQQSGAELVKPGASVKMSCKASGYTFTIYNIHWVRQTPGQGLEWIGLIYPDNGDTSYNQKFKAKATLTADKSSSTAYMQLSSLTSEDSAVYYCARGGFDYWGQGTSLTVSSGGGGSGGGGSGGGGSDIVMTQSQKFMSTSVGDRVSVTCKASQNVGTNVAWYQQKPGQSPKALIYSASYRYSGVPDRFTGSGSGTDFTLTISNVQAEDLADYFCQQHYSTPYTFGGGTKLEMK
Ans. 0.065

Qu. Give the reported value of OD (450 nm) value for this record: 3A3 scFv displayed on phage (scFv) scFv: QVQLQQSGAELVKPGASVKMSCKASGYTFTTYNIHWVRQTPGQGLEWIGLIYPDNGDTSYNQKFKAKATLTADKSSSTAYMHLSSLTSEDSAVYYCARGGFDYWGQGTTLTVSSGGGGSGGGGSGGGGSDIVMTQSHKFMSTSVGDRVSITCKASQDVNTDVSWYQQKPGQSPKLLIYSASYRYTGVPTRFTGSGSGTDFTFTISGVQAEDLADYYCQQHYNTPYTFGGGTRLEIK
Ans. 0.05
